- System: Eleocharis acicularis
- TEST_DESCRIPTION: Pre-emergence herbicidal activity against Eleocharis acicularis at 500 g a.i/ha measured after 14 days
- Assay type: functional, organism-based
Activity calls are given as the source filed them. The rule behind the calls is not given here.
Result category, one only: active, inactive

Cn1cc(C(=O)NOc2ccc(C(F)(F)F)cc2)c(OCc2cccc(C(F)(F)F)c2)n1 | active
Cn1nc(OCc2cccc(C(F)(F)F)c2)c(C(=O)NOc2ccc(F)cc2F)c1Cl | inactive
CCONC(=O)c1cn(C(C)(C)C)nc1OCc1cccc(C(F)(F)F)c1 | inactive
Cn1cc(C(=O)Nc2ccc(C(C)(C)C)cc2)c(OCc2cccc(C(F)(F)F)c2)n1 | inactive
Cn1cc(C(=O)NOc2cccc(Cl)c2)c(OCc2cccc(C(F)(F)F)c2)n1 | active
Cn1cc(C(=O)Nc2ccc(C(F)(F)F)cc2)c(OCc2cccc(C(F)(F)F)c2)n1 | active
CONC(=O)c1cn(C)nc1OCc1cccc(C(F)(F)F)c1 | active
Cn1cc(C(=O)NOc2ccccc2)c(OCc2cccc(C(F)(F)F)c2)n1 | active

# input Record request — test call for C=CCNC(=O)c1cn(C)nc1OCc1cccc(C(F)(F)F)c1
# output inactive

# input So what was the verdict on CCN(C(=O)c1cn(C)nc1OCc1cccc(C(F)(F)F)c1)C1CCCCC1 in this test?
# output inactive

Recorded values, source ChEMBL document CHEMBL3046635.
